Recorded log10 of MIC values for a group of molecules are listed next.
tested on: Mycobacterium tuberculosis H37Rv; assay: Anti-tuberculosis activity test in vitro (Microplate Alamar Blue Assay, MABA); assay type: cell-based; settings: M. tuberculosis H37Rv, MABA, 7H9 medium, method says MIC90 was calculated, read-out: MIC
A value of 2 here means MIC of 100 in µg/mL, since values are log10.

Guide cases for log10 of MIC, answers given:
>>> number("O=C(NC[C@@H]1OC(=O)N2c3cc(F)c(N4CCSCC4)cc3OC[C@@H]12)c1cnccn1")
-0.94
>>> number("O=C(NC[C@@H]1OC(=O)N2c3cc(F)c(N4CCSCC4)cc3OC[C@@H]12)C1CC1")
-1.47
>>> number("O=C(NC[C@H]1OC(=O)N2c3cc(F)c(N4CCSCC4)cc3OC[C@H]12)C1CCC1")
-0.66
>>> number("NC[C@@H]1OC(=O)N2c3cc(F)c(N4CCSCC4)cc3OC[C@@H]12")
-1.54
>>> number("O=C1O[C@@H](CNc2ccon2)[C@@H]2COc3cc(N4CCSCC4)c(F)cc3N12")
-1.60

Prompt line: Respond only with log10 of MIC recorded for COC(=O)NC[C@@H]1OC(=O)N2c3cc(F)c(N4CCSCC4)cc3OC[C@@H]12
Response line: -1.51

Prompt line: Respond only with log10 of MIC recorded for O=C1O[C@@H](Cn2ccnn2)[C@@H]2COc3cc(N4CCSCC4)c(F)cc3N12
Response line: -0.64

Prompt line: Respond only with log10 of MIC recorded for CC(=O)NC[C@@H]1OC(=O)N2c3cc(F)c(N4CCS(=O)(=O)CC4)cc3OC[C@@H]12
Response line: -0.32
